Below, each entry is listed with its recorded EC50.
# tgt: GLP-1R (Homo sapiens)
# Sequence (P43220 24-463): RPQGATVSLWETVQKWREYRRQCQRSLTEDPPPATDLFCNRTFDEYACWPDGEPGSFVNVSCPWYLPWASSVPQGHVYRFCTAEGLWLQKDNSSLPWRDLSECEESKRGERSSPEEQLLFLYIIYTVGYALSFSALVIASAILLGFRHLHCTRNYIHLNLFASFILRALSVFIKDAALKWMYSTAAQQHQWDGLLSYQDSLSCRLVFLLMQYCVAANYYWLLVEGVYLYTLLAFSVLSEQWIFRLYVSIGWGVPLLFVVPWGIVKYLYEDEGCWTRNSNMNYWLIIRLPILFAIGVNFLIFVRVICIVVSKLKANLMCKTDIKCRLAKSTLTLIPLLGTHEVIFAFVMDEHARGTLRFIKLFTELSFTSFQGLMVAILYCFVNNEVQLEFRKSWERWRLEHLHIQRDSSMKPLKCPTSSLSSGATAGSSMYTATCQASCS
# protocol-summary: GLP-1R agonist cAMP stimulation assay (HTRF cAMP)
# assay-context: HEK293 cell line expressing GLP-1 target; HTRF cAMP agonist mode, 30 min at RT
Return type: number; implicit unit nM.

Use the examples below as a reference point.
INSERT INTO measurements (compound, observed_result) VALUES
  ('Cc1cc(NC(=O)c2ccc3c(c2)nc(CN2CC=C(c4cccc(OCc5ccc(C#N)cc5F)n4)CC2)n3C[C@@H]2CCO2)cc2cn[nH]c12', 1.19),
  ('Cc1n[nH]c2c(C(F)(F)F)cc(NC(=O)c3ccc4c(c3)nc(CN3CC=C(c5cccc6c5O[C@@](C)(c5ccc(Cl)cc5F)O6)CC3)n4CC3CCO3)cc12 (stereo partly drawn)', 0.82),
  ('O=C(NCC(=O)N1C[C@H](O)C[C@H]1C(=O)O)c1ccc2c(c1)nc(CN1CCC(c3cccc(OCc4ccc(Cl)cc4F)n3)CC1)n2C[C@@H]1CCO1', 0.32),
  ('Cc1cc(C(=O)Nc2ccc3c(c2)nc(C2CC24CCN(c2cccc(OCc5ccc(Cl)cc5F)n2)CC4)n3C[C@@H]2CCO2)cc2c1NC(=O)C21CC1 (stereo partly drawn)', 0.83),
  ('COCCn1c(CN2CCC(c3cccc(OCc4ccc(Cl)cc4F)n3)CC2)nc2cc(C(=O)NCC(CC(=O)O)c3ccccc3)ccc21 (stereo not drawn)', 376);

Exam item: Request the reported EC50 associated with CC1(c2ccc(Cl)cc2F)Oc2cccc(-c3cc(F)c(Cc4nc5cc(NC(=O)c6cc(F)c7c(c6)C(C6CC6)C(=O)N7)ccc5n4C[C@@H]4CCO4)c(F)c3)c2O1 (stereo partly drawn)
Marked response: 0.64

Exam item: Now try COC(=O)[C@@H]1CC(F)(F)CN1C(=O)[C@H](C)NC(=O)c1ccc2c(c1)nc(CN1CC=C(c3cccc(OCc4ccc(Cl)cc4F)n3)CC1)n2C[C@@H]1CCO1 .
Marked response: 132
